biological target: furin, P09958; assay: furin cleavage Z-score vs untreated control; higher = more cleavage, active = 3.5 or more, inactive = 1 or less, 8 variable residues between constant flanks; conditions: 30 min;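 note: purified furin at 1:10 enzyme:substrate in 50 mM HEPES pH 7.5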
Sequence (P09958 whole entry): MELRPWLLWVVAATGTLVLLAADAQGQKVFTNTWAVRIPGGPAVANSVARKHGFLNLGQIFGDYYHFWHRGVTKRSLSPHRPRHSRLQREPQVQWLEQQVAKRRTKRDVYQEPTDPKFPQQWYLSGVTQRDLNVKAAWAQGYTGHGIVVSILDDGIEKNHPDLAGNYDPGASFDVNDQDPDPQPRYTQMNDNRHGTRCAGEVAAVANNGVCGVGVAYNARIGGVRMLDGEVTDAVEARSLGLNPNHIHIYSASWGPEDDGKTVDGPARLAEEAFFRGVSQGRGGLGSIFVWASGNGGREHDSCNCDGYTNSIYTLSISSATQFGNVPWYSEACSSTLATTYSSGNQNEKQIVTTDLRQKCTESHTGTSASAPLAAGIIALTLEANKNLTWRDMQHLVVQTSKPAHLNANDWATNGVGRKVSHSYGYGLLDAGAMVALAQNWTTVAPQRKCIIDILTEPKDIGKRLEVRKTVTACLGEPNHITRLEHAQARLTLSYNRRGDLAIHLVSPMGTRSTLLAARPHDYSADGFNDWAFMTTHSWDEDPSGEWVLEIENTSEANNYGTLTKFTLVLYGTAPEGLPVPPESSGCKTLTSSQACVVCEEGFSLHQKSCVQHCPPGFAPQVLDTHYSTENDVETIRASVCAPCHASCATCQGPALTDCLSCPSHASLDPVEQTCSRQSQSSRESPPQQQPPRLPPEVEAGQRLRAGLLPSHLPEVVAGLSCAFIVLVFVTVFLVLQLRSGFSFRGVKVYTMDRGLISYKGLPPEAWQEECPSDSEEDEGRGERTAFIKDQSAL
This is one part of the list. How many sequences the whole screen found active is unknown.
furin cleavage Z-score by entry:
I only need the number, thanks.

Some entries whose results are on file:
| chain | furin cleavage Z-score |
| --- | --- |
| CACGGRGKRSAGNASASA [FS-14] | 7.54 |
| CAVVCCSMCYAGNASASA [HC2080] | 2.39 |
| CARKRAQKRSAGNASASA [FS-1064] | 7.74 |
| CAALVRTRRCAGNASASA [FS-214] | 5.43 |
| CALKRRGKRSAGNASASA [FS-350] | 8.44 |
| CAIYGACYSIAGNASASA [HC1594] | -0.201 |

Let us examine a further case.
Prompt: Read the entry CALSTGCVVIAGNASASA [HC998] and write its reported furin cleavage Z-score.
Response: 1.11
